tested on: Malme-3M; assay: NCI tumour cell line growth inhibition, 48 h
The source made the active and inactive calls. No stated cut-off is given here; in the data, active = GI50 up to about 1.1 µM and inactive = higher.
MEASURED_PROPERTY: GI50

{"columns": ["COMPOUND", "READING"],
 "data": [
  ["Cc1cc2nc3c(C#N)c(C)c(CCCl)c(Cl)n3c2cc1C", "2.96 µM (inactive)"],
  ["COc1cc(C2[C@H]3C(=O)N(c4ccc(Cc5ccc(N6C(=O)[C@@H]7ON(c8ccccc8)C(c8cc(OC)c(OC)c(OC)c8)[C@@H]7C6=O)cc5)cc4)C(=O)[C@H]3ON2c2ccccc2)cc(OC)c1OC (some centres undefined)", "46.3 µM (inactive)"],
  ["C1=CC2CCC1CN2CCC1CNc2ccccc21 (centres undefined)", "> 100 µM (inactive)"],
  ["Oc1cc(O)c2c(c1)O[C@H](c1cc(O)c(O)c(O)c1)[C@@H](O)C2", "> 100 µM (inactive)"]
]}

###

system: SNB-75; assay: NCI tumour cell line growth inhibition, 48 h
Activity calls are given as the source filed them. Rule as the data show it: active = GI50 up to about 1.1 µM and inactive = higher.
Labels: active, inactive

{"columns": ["COMPOUND", "QUALITATIVE_LABEL"],
 "data": [
  ["CC(=O)O[C@H]1C(=O)[C@@]2(C)C(C(OC(=O)c3ccccc3)[C@]3(O)CC(OC(=O)C(O)C(NC(=O)c4ccc(C(F)(F)F)cc4)c4ccccc4)C(C)=C1C3(C)C)[C@]1(OC(C)=O)CO[C@@H]1C[C@@H]2O (stereo not given in full)", "active"],
  ["CC1(C)OCC(C(O)C2OC(C)(C)OC2C=O)O1 (stereo not given)", "inactive"],
  ["Cc1cc(S(N)(=O)=O)c(S/C(=N\\Nc2ccc([N+](=O)[O-])cc2)c2ccc(Cl)cc2)cc1Cl", "inactive"],
  ["CC(=O)C1=C(C)N(c2ccc(C)cc2)C2(O)C=CC(O)=C3C(=O)c4ccccc4C(=O)C312 (stereo not given)", "inactive"],
  ["O=C1C(NCCN2CCOCC2)=C(Cl)C(=O)c2ncccc21", "inactive"]
]}

###

tested on: SK-MEL-28; experiment: NCI tumour cell line growth inhibition, 48 h
Activity calls are given as the source filed them. No stated cut-off is given here; in the data, active = GI50 up to about 1.1 µM and inactive = higher.
Classes used: 1 (yes) = active, 0 (no) = inactive

{"columns": ["COMPOUND", "QUALITATIVE_LABEL"],
 "data": [
  ["Fc1ccc2c3c([nH]c2c1)CCN(Cc1ccccc1)C3", "0 (no)"],
  ["CN(C)c1ccc(/C=C(\\NC(=O)c2ccccc2)C(=O)NC(CC(=O)O)C(=O)O)cc1 (stereo not given)", "0 (no)"],
  ["Cc1cc(S(N)(=O)=O)c(S/C(=N\\Nc2ccc([N+](=O)[O-])cc2)c2ccc(Cl)cc2)cc1Cl", "1 (yes)"],
  ["COP(=O)(OC)/C(=N\\Nc1ccc([N+](=O)[O-])cc1)NCc1ccccc1", "0 (no)"],
  ["CCC[S+]([O-])c1nc(COC(=O)NC)c(COC(=O)NC)n1C (stereo not given)", "0 (no)"],
  ["CC(C)(C)OC(=O)N/N=C(/N)Cc1ccccc1", "0 (no)"],
  ["CC1=CC(=O)C[C@]2(C)[C@@H](O)CC(C(C)CO)C[C@@H]12 (stereo not given in full)", "0 (no)"],
  ["Cc1ccc(/N=C2\\SC(=S)N(CCC[N+](C)(C)C)\\C2=N/c2ccc(C)cc2)cc1", "0 (no)"],
  ["O=C(Nc1ccc(Nc2ccc3c(c2)C(=O)c2ccccc2C3=O)c2c1C(=O)c1ccccc1C2=O)c1ccccc1", "0 (no)"],
  ["COc1cc2c3c(c1Oc1nnnn1-c1ccccc1)-c1c(ccc4c1OCO4)C[C@H]3N(C)CC2", "0 (no)"]
]}

###

tested on: KM12; test: NCI tumour cell line growth inhibition, 48 h
Calls of active or inactive are those of the source. Rule as the data show it: active = GI50 up to about 1.1 µM and inactive = higher.
MEASURED_PROPERTY: GI50

{"columns": ["MOLECULE", "MEASURED_PROPERTY", "READING"],
 "data": [
  ["COC(=O)CCC(=O)CC1CC(=O)C2CCCN12 (stereo not given)", "GI50", "> 100 µM (inactive)"],
  ["Cc1c2ccccc2c(/C=N/NC(=O)CSCC(=O)N/N=C/c2c3ccccc3c(C)c3ccccc23)c2ccccc12", "GI50", "> 56.4 µM (inactive)"],
  ["CC1=CC(=O)C[C@]2(C)[C@@H](O)CC(C(C)CO)C[C@@H]12 (stereo not given in full)", "GI50", "> 100 µM (inactive)"],
  ["CCC12CCCN(Cc3ccccc3)C1c1c(n(C)c3ccccc13)C(C(=O)OC)C2 (stereo not given)", "GI50", "85.3 µM (inactive)"],
  ["CC(C)=CCCC1(Sc2ccccc2)C(=O)OCC1C=C(C)C (stereo not given)", "GI50", "27 µM (inactive)"],
  ["OC1OC(c2ccc[nH]2)C(F)(F)C(F)(F)C1(F)F (stereo not given)", "GI50", "> 100 µM (inactive)"],
  ["Cc1cn(CCCCCOC(=O)NC(CCCNC(N)=O)C(=O)O)c(=O)[nH]c1=O (stereo not given)", "GI50", "> 100 µM (inactive)"],
  ["CCc1nc2ccccc2c(=O)n1/N=C(\\N=N\\c1ccc(Cl)cc1)c1ccccc1", "GI50", "18.2 µM (inactive)"],
  ["CCOC(=O)c1c(NC(=O)c2cccs2)sc2c1CCC2", "GI50", "> 100 µM (inactive)"],
  ["CCCc1nn(C)c(CCC(=O)N(Cc2ccccc2)Cc2ccccc2)c1CC", "GI50", "> 100 µM (inactive)"]
]}

###

tested on: RXF 393; assay: NCI tumour cell line growth inhibition, 48 h
Activity calls are given as the source filed them. Cut-off read from the data, not from the text of the source: active = GI50 up to about 1.1 µM and inactive = higher.
Labels: true (1) (active), false (0) (inactive)

{"columns": ["COMPOUND", "QUALITATIVE_LABEL"],
 "data": [
  ["CS(=O)(=O)OCCn1c(=O)n(CCOS(C)(=O)=O)c(=O)n(CCOS(C)(=O)=O)c1=O", "false (0)"],
  ["Cc1ccc(NC(=O)CC(=O)n2nc(-c3ccccc3)c(/N=N\\c3ccccc3[N+](=O)[O-])c2-c2ccccc2)cc1", "false (0)"],
  ["CC(=O)OC1CC2C(C)(C)OC(=O)CC(OC(C)=O)[C@]2(C)C2CCC3(C)C(=CCC3c3ccoc3)[C@]12C (some centres undefined)", "false (0)"],
  ["O=C(/C=C(\\O)C(=O)O)/C=C(\\O)c1ccccc1Cl", "false (0)"],
  ["CCOc1ccc(/C=C\\c2cc(OC)c(OC)c(OC)c2)cc1", "true (1)"],
  ["O=C(CSc1nnc(-c2ccc(/N=C\\c3ccc(Cl)cc3)cc2)o1)Nc1ccccc1", "false (0)"],
  ["Cc1ccc2[nH]c3c(c2c1)C1CCC(C(C)(C)C)CC1C1C(=O)N(c2ccc4c(c2)OCO4)C(=O)C31 (centres undefined)", "false (0)"],
  ["Cc1ccc(C2SC(=N)Nc3c2c(C)nn3C(=O)c2ccncc2)cc1 (centres undefined)", "false (0)"],
  ["O=NN(CCCl)C(=O)NC1CCC(=O)NC1=O (centres undefined)", "false (0)"]
]}

###

tested on: KM12; experiment: NCI tumour cell line growth inhibition, 48 h
Calls of active or inactive are those of the source. Cut-off read from the data, not from the text of the source: active = GI50 up to about 1.1 µM and inactive = higher.
MEASURED_PROPERTY: GI50

{"columns": ["COMPOUND", "READING"],
 "data": [
  ["Cc1ccc(C2(O)CS/C(=N\\C34CC5CC(CC(C5)C3)C4)N2C(P(=O)(O)O)P(=O)(O)O)cc1 (centres undefined)", "> 100 µM (inactive)"],
  ["C=C[C@H]1CN2CC[C@H]1C[C@@H]2[C@@H](O)c1ccnc2ccccc12", "> 100 µM (inactive)"],
  ["COc1c(NC(C)=O)cc(C)cc1NC(C)=O", "> 100 µM (inactive)"],
  ["NN=C1/C(=C\\c2ccccc2)CCC/C1=C/c1ccccc1", "34.1 µM (inactive)"]
]}

###

test system: HT-29; assay: NCI tumour cell line growth inhibition, 48 h
Activity calls are given as the source filed them. No stated cut-off is given here; in the data, active = GI50 up to about 1.1 µM and inactive = higher.

{"columns": ["COMPOUND", "GI50"],
 "data": [
  ["C/C=C/c1cc2c(cc1O)CC[C@@H]1[C@@H]2CC[C@]2(C)[C@@H](O)CC[C@@H]12", "6.34 µM (inactive)"],
  ["CN1CCc2cc(N)cc3c2C1Cc1ccc2c(c1-3)OCO2 (centres undefined)", "30.7 µM (inactive)"],
  ["COc1ccc(-c2cc(=O)c3c(O)cc(O)cc3o2)c(OC)c1OC", "80 µM (inactive)"],
  ["CC(=O)OCC12C(OC(C)=O)C[C@@H](C)C3(CC(c4ccoc4)OC3=O)C1CCC(O)C21CO1 (some centres undefined)", "> 100 µM (inactive)"]
]}

###

Entries and their measured GI50 follow.
system: ACHN; experiment: NCI tumour cell line growth inhibition, 48 h
Activity calls are given as the source filed them. Rule as the data show it: active = GI50 up to about 1.1 µM and inactive = higher.

{"columns": ["COMPOUND", "GI50"],
 "data": [
  ["O=C(NCCSSCCNC(=O)/C(Cc1ccc(O)c(Br)c1)=N/O)/C(Cc1ccc(O)c(Br)c1)=N/O", "1.62 µM (inactive)"],
  ["COc1ccc2[nH]c(S(=O)(=O)N3CC(CCl)c4ccc(N)cc43)cc2c1 (stereo unspecified)", "8.91 µM (inactive)"],
  ["Cc1ccc(CC[PH](=O)CCc2ccc(C)nc2)cn1", "> 100 µM (inactive)"],
  ["Cc1ccc(C2SC(=N)Nc3c2c(C)nn3C(=O)c2ccncc2)cc1 (stereo unspecified)", "> 10 µM (inactive)"],
  ["O=C1CCCC2(c3ccccc3)Nc3ccccc3N12 (stereo unspecified)", "> 100 µM (inactive)"],
  ["O=C1Nc2ccccc2/C1=C\\c1c(Cl)nc2n1CCS2", "38.3 µM (inactive)"]
]}

FYI, the data here is from ChEMBL document CHEMBL1201862.
